Experiment: Compound was tested for percent of oral bioavailability at 10 […] dose in dogs
Type: ADME, organism-based, Canis lupus familiaris
Conditions: dog, in vivo, read-out: Bioavailabiility
ASSAY METRIC: bioavailability (%)
One number for each entry, in %.

Could you tell me which bioavailability is on file for "CN(C(=O)[C@H](Cc1ccc(C(=N)NN)cc1)NS(=O)(=O)c1ccc2ccccc2c1)C1CCCC1" ?
58

###

Assay: Half life was evaluated in dog
Format: ADME, organism-based, Canis lupus familiaris
Conditions: in vivo
ASSAY METRIC: half-life (h)
Numbers only, in h.

Could you tell me which half-life is on file for "CN(C(=O)[C@H](Cc1ccc(C(=N)NN)cc1)NS(=O)(=O)c1ccc2ccccc2c1)C1CCCC1" ?
1.87

###

Target: Coagulation factor X (Homo sapiens, UniProt P00742)
Sequence (P00742 41-179 limits assumed): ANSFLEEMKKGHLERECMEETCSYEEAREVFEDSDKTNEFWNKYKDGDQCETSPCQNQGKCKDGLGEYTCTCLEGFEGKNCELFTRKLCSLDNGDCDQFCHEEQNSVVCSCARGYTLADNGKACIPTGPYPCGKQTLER
Sequence (P00742 235-488 limits assumed): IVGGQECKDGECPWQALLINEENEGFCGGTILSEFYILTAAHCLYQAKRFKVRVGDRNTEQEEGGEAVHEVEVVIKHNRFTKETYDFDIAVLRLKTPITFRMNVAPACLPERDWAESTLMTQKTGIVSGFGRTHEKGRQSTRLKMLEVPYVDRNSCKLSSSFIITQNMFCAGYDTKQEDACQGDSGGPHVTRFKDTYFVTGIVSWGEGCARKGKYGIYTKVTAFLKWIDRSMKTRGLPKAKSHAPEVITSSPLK
ASSAY METRIC: Ki (µM)
Answers are plain numbers, in µM.

Could you tell me which Ki is on file for "CN(C(=O)[C@H](Cc1ccc(C(=N)NN)cc1)NS(=O)(=O)c1ccc2ccccc2c1)C1CCCC1" ?
1.1

###

Target: Prothrombin (Homo sapiens)
ASSAY METRIC: Ki (nM)
Numbers only, in nM.

Could you tell me which Ki is on file for "CN(C(=O)[C@H](Cc1ccc(C(=N)NN)cc1)NS(=O)(=O)c1ccc2ccccc2c1)C1CCCC1" ?
0.38

###

Target: Tissue-type plasminogen activator (Homo sapiens)
Sequence (P00750 whole entry): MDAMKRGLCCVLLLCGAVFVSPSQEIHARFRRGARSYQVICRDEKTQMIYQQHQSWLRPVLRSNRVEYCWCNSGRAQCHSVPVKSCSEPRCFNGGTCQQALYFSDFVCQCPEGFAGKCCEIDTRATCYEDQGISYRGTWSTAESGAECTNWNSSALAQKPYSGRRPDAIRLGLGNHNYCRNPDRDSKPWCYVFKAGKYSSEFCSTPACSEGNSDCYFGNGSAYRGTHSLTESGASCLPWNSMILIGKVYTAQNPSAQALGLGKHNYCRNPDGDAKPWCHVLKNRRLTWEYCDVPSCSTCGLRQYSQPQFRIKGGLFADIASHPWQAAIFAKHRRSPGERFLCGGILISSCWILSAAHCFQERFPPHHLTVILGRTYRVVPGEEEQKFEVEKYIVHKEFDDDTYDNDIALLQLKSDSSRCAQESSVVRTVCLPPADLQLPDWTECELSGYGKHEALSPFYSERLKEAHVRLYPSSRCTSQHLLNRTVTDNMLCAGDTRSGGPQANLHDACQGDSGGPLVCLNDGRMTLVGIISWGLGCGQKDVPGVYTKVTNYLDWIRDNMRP
Experiment: The compound was tested for inhibitory activity against tissue plasminogen activator
ASSAY METRIC: pKi
Numbers only, as −log10 of the molar value.

Could you tell me which pKi is on file for "CN(C(=O)[C@H](Cc1ccc(C(=N)NN)cc1)NS(=O)(=O)c1ccc2ccccc2c1)C1CCCC1" ?
4.57
